target: Kappa-type opioid receptor (Homo sapiens); test: KOR agonists, beta-arrestin recruitment, primary screen, cell-based, luminescence, uHTS (AID 1777); settings: at 10 µM, hits give high values
Hit rate of the full screen: of about 280,000 compounds, about 50 (0.02%) were called active. The list comes from a sample in which actives are over-represented; it also holds close analogues and randomly drawn compounds. Results with a measured potency or affinity are listed apart.
Measured attribute: activation (%)
Value expressed in %; do not type the unit.

Prompt: Could you share which activation value was measured for O=C1C2ON(c3ccccc3)C(c3cccnc3)C2C(=O)N1c1ccccc1 (stereo not given) ?
Response: -3.9

Prompt: Recorded activation of CCOc1ccc(-n2nnc3c(=O)n(CC(=O)c4ccccc4)cnc32)cc1 , please.
Response: 52.9

Prompt: Requested read-out: activation. Entry: O=C(Cc1ccccc1)c1c[nH]c(C(=O)NCCCn2ccnc2)c1
Response: 1.2

Prompt: Can you share its activation? I mean this compound: Cc1ccc(OC(C)c2nnc(N)s2)cc1Cl (stereo not given)
Response: -0.5

Prompt: GET /values?readout=activation&item= Cc1cccc(-n2ccnc2CN2CCN(C(C)C)C(CCO)C2)c1 (stereo not given)
Response: 8

Prompt: Given Cc1c(Cl)cccc1N1C(=O)C2ON(c3ccccc3)C(c3cccnc3)C2C1=O (stereo not given) , state its recorded activation.
Response: 0.9

Prompt: // returns reported activation for input Cc1ccc(-n2nnc3c(=O)n(CC(=O)c4ccccc4)cnc32)cc1
Response: 4.2

Prompt: GET /values?readout=activation&item= CCOc1ccc(N2C(=O)Nc3ccc(Br)cc3C2(O)C(=O)NCCN(C)C)cc1 (stereo not given)
Response: -0.1

Prompt: Please look up its activation: Cc1cc(N/C(=N/S(=O)(=O)c2cc(F)ccc2F)c2ccccc2)n(-c2ccccc2)n1
Response: -1.3

Prompt: # activation lookup, item COc1ccc(OC)c2[nH]c(=O)c(CCNC(=S)NC(C)(C)C)cc12
Response: -9
